Values compiled from paper PMC3108854.

- Assayed system: Pf N-Myristoyl Transferase (Plasmodium falciparum, UniProt Q8ILW6)
- Sequence (Q8ILW6 whole entry): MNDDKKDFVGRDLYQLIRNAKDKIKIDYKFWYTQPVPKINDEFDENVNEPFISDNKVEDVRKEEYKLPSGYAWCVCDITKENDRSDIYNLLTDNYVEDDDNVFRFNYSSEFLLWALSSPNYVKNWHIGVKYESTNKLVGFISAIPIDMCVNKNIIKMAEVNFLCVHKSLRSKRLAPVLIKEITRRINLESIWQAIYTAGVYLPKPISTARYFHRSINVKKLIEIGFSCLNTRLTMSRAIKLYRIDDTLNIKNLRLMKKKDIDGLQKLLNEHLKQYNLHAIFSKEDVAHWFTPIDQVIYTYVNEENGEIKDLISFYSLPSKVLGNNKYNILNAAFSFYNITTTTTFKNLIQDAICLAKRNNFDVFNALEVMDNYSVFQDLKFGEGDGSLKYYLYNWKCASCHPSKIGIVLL
pIC50: −log10 of the molar value.

{"Compound": "O=C(O)C1=CC(=C(c2ccc(O)c(C(=O)O)c2)c2ccc(O)c(C(=O)O)c2)C=CC1=O [aurintricarboxylate]", "pIC50": "~5.52"}

* * *

- Assayed system: UniProtKB Q9U8D3
- Sequence (Q9U8D3 whole entry): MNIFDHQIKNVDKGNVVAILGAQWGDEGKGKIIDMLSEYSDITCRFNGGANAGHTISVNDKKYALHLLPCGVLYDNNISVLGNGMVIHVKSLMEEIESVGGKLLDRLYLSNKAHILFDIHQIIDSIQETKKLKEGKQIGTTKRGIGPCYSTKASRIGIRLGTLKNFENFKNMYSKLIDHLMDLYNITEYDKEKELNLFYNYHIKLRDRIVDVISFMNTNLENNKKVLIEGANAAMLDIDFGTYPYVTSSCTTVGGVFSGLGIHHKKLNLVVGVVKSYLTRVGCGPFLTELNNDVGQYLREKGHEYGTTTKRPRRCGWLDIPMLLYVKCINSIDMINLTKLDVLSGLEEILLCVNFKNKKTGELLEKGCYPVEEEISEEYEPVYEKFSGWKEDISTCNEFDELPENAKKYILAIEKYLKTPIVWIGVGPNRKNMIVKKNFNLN
Attribute measured: IC50 (µM)

{"Smiles record": "O=CN(O)CC(=O)O", "Attribute measured": "IC50", "Recorded result": 62}
